These entries and their values trace back to ChEMBL document CHEMBL1152678.

test: Antiglycation activity assessed as inhibition of BSA-derived advance glycated end product formation after 9 days by spectrophotometry
Assay type: physicochemical
experimentalParameters: read-out: IC50
measurementLabel: IC50 (µM)
Write down the numeric answer in µM and omit the unit.

Observe how each entry below is paired with its result.
INSERT INTO assay_data (molecule, measurementlabel, unittext, endpointresult) VALUES
  ('C[C@@H]1O[C@@H](OC[C@H]2O[C@@H](Oc3c(-c4ccc(O)c(O)c4)oc4cc(O)cc(O)c4c3=O)[C@H](O)[C@@H](O)[C@@H]2O)[C@H](O)[C@H](O)[C@H]1O [RUTIN]', 'IC50', 'µM', 294),
  ('O=C1Nc2ccc(Cl)cc2/C1=N/N=C/c1ccc(O)c(O)c1', 'IC50', 'µM', 469),
  ('COc1cccc(/C=N/N=C2\C(=O)Nc3ccccc32)c1O', 'IC50', 'µM', 359),
  ('CN(C)c1ccc(/C=N/N=C2\C(=O)Nc3ccccc32)cc1', 'IC50', 'µM', 406),
  ('O=C1Nc2ccccc2/C1=N/N=C/c1ccc(O)c(O)c1', 'IC50', 'µM', 291);

stdin: Let me know recorded IC50 for "O=C1Nc2ccccc2/C1=N/N=C/c1cc(Cl)ccc1O" , thanks.
stdout: 634

stdin: Let me know recorded IC50 for "O=C1Nc2ccccc2/C1=N/N=C/c1ccccc1O" , thanks.
stdout: 444

stdin: Let me know recorded IC50 for "O=C1Nc2ccccc2/C1=N/N=C/c1ccc([N+](=O)[O-])cc1" , thanks.
stdout: 258

stdin: Let me know recorded IC50 for "O=C1Nc2ccccc2/C1=N/N=C/c1ccccc1[N+](=O)[O-]" , thanks.
stdout: 244

stdin: Let me know recorded IC50 for "O=C1Nc2ccccc2/C1=N/N=C/c1cccc2ccccc12" , thanks.
stdout: 380
